Biological target: BLM full-length (human, UniProt P54132 1-1417)
Sequence (P54132 whole entry): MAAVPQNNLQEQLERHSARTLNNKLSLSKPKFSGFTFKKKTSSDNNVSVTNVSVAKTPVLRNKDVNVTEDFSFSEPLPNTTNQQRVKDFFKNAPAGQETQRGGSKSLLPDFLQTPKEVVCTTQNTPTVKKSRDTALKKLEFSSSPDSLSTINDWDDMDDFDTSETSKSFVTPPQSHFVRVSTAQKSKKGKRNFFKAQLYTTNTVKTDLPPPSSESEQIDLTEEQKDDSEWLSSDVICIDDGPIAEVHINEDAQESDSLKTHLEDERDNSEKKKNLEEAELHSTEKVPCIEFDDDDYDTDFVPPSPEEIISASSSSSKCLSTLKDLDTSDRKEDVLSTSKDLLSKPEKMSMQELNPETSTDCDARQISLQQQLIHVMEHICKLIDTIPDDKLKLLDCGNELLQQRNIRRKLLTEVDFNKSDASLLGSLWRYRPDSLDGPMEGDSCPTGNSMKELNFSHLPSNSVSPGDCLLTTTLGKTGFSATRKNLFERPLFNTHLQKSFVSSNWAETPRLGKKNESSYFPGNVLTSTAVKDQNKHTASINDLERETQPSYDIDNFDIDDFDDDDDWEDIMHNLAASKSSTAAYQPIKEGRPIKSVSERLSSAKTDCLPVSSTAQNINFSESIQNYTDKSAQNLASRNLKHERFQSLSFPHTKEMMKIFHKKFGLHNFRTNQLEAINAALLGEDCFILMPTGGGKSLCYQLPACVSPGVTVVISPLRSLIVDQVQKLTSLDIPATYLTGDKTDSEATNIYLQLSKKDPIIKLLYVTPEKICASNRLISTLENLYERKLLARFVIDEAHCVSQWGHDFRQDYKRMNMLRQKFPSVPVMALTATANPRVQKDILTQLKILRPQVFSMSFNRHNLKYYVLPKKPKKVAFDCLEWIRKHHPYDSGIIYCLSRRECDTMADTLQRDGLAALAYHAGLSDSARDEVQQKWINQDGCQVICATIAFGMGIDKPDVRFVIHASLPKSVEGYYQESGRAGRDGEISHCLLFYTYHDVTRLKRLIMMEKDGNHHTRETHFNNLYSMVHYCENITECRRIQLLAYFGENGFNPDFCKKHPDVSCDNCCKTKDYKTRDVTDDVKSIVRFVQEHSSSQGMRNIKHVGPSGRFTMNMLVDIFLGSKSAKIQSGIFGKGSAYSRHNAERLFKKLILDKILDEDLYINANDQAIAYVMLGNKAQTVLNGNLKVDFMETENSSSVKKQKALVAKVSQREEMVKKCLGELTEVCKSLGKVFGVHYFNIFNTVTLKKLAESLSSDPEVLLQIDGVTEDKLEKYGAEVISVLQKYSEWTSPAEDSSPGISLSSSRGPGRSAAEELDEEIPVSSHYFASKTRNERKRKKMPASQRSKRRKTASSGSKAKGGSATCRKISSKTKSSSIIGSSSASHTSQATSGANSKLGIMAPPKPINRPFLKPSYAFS
Assay: fluorescence anisotropy; IC50 of CdCl2 inhibiting binding (not protein affinity); 200 nM protein, 5 nM DNA; 50 mM Tris-HCl pH 8.0, 50 mM NaCl, 1 mM DTT, 25 C; 200 nM protein, 5 nM 3'-fluorescein DNA
Details: protein: recombinant; (Ni-NTA purified); label: 3'-fluorescein
READOUT: pIC50
Schema: pIC50 number; meaning minus log10 of the concentration expressed in molar units.

>  <BINDER>
GCCCTGCTGCCGACCAACGAAGGT (ssDNA) [F-24 ss]

>  <QUANTITATIVE_READOUT>
5.18

$$$$

Lab note: next binder to report on.
Task: Suppose we examine the binder GCCCTGCTGCCGACCAACGATGGTTACATTCCCGCTGCTG (ssDNA) [F-40] ; what pIC50 value has been reported?
Output: 5.18
